tested on: P. vulgatus RND KO; test: growth AUC normalised to DMSO control (median) (fraction of control); higher = less growth inhibition, active = hit call of the paper; details: 20 µM;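 further: active when median AUC fell below 0.1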
Where a name gives a salt, the structure may show the parent alone.
Quick reference for growth AUC normalised to DMSO control among some molecules
Answer with the value's number alone.

**Q:** Request the reported growth AUC normalised to DMSO control associated with COc1ccc2[nH]cc(CCNC(C)=O)c2c1 [Melatonin]
**A:** 0.988

**Q:** Query Cc1cc(-c2ccccc2)nnc1NCCN1CCOCC1 [Minaprine dihydrochloride] next
**A:** 1

**Q:** // next record O=C1CN2Cc3c(ccc(Cl)c3Cl)N=C2N1 [Anagrelide]
**A:** 1.01
